These entries and their values trace back to the supplement of paper PMC8728848.

target: Man(a1-2)Man(a1-2)Man(a1-3)Man; assay: glycan array binding signal (z-score within array); higher = stronger binding; settings: glycan notation: IUPAC condensed, linker removed
The entries come from a sample that favours the strongest signals as a whole.
readout.name: glycan array binding signal (z-score)
Give the figure only, with no unit attached.

Data request: Given PEB4 (Campylobacter jejuni), A1VYV6 (protein) MKKFSLVAAALIAGVALNVNAATVATVNGKSISDAEVSEFFAPMLRGQDFKTLPDNQKKALIQQYIMQDLILQDAKKQNLEKDPLYTKELDRAKDAILVNVYQEKILNTIKIDAAKVKAFYDQNKDKYVKPARVQAKHILVATEKEAKDIINELKGLKGKELDAKFSELAKEKSIDPGSKNQGGELGWFDQSTMVKPFTDAAFALKNGTITTTPVKTNFGYHVILKENSQAKGQIKFDEVKQGIENGLKFEEFKKVINQKGQDLLNSAKVEYK , respond with its glycan array binding signal (z-score).
Data returned: 2.37
